- Tested on: MCF7 breast
- assayInfo: NCI-60 one-dose screen, 48 h (100 = growth as untreated, 0 = no growth, -100 = all killed)
- particulars: 10 µM
The panel holds about 83,000 compounds, 20% with a hit somewhere; the sample as a whole holds those more often.
measurementType: growth (%)
Hi! Could you send only the number? It should be in %, unit omitted.

As a guide, the following entries are already answered.
{"columns": ["molecule", "measurementType", "unitsLabel", "measurement"],
 "data": [
  ["Cc1ccc(CN2CCC(C(=O)Nc3ccc(-c4cc5ccccc5[nH]4)cc3)CC2)o1", "growth", "%", 64.1],
  ["COc1ccc(C2c3ccc4ccccc4c3Oc3ncn(CCCn4ccnc4)c(=N)c32)cc1OC (configuration not stated)", "growth", "%", 51.8],
  ["COC(=O)/C(CCC=C(C)C)=C1\\[C@@H](OC(C)=O)C[C@@]2(C)[C@H]1C[C@@H](O)[C@H]1[C@@]3(C)CC[C@H](NCc4ccccc4)[C@@H](C)[C@@H]3CC[C@@]12C", "growth", "%", 49.5]
]}

Inquiry: Look up growth with MCF7 breast for this molecule: COc1cc(/C=C/C(=O)c2ccc(Nc3nc(NCCO)nc(N4CCOCC4)n3)cc2)cc(OC)c1OC
Reply text: 3.22

###

- Test system: A549/ATCC NSCLC
- assayInfo: NCI-60 one-dose screen, 48 h (100 = growth as untreated, 0 = no growth, -100 = all killed)
- particulars: 10 µM unless noted
- Description: Growth inhibition of the A549/ATCC human Non-Small Cell Lung tumor cell line is measured as a screen for anti-cancer activity. Cells are grown in 96 well plates and exposed to the test compound for 48 hours. Compounds are tested at a single concentration, which is 10^-5 M for most compounds. The reported endpoint is percent growth (GI% or GIPRCNT), where numbers from 0 - 100% represent growth inhibition, and numbers from -100% - 0 represent cell death. […]
The panel holds about 83,000 compounds, 20% with a hit somewhere; the sample as a whole holds those more often. The source made the active and inactive calls. How the source made its calls: active means growth percent below 10; inactive means the rest.
Reported growth values are given for each entry in this list.

{"columns": ["compound", "growth"],
 "data": [
  ["NCCOc1ncccc1/C=C1\\c2ccccc2-c2ccc(F)cc21", "-51.9% (active)"],
  ["COc1ccc(-c2cn[nH]c2-c2ccc(OC)c(O)c2)cc1", "76% (inactive)"],
  ["COc1nc2c(c(=O)n1C)N=C1c3ccccc3C(=O)C1C(c1ccccc1)N2 (stereo unspecified)", "91.5% (inactive)"],
  ["O=C(c1ccccc1)N(C(=S)NCCc1ccc(Cl)cc1)c1ccc(Cl)cc1", "82.4% (inactive)"],
  ["O=C1/C=C/[C@@H](O)[C@@H]2C[C@@H](O)C[C@H]2/C=C/CCCCO1", "23.1% (inactive)"]
]}

Inquiry: Recorded growth for CCOC(=O)c1cc2c(n1Cc1ccccc1)-c1oncc1CCC2 , please?
Reply text: 59.2% (inactive)

Inquiry: Recorded growth for COc1cc(/C=C2\CN(C)C/C(=C\c3cc(CN4CCCCC4)c(O)c(OC)c3)C2=O)cc(CN2CCCCC2)c1O , please?
Reply text: 45.7% (inactive)

Inquiry: Recorded growth for COc1ccc(C2=Nn3c(NN)nnc3SC2)cc1 , please?
Reply text: 87.2% (inactive)

###

- Tested on: NCI-H23 lung
- assayInfo: NCI-60 one-dose screen, 48 h (100 = growth as untreated, 0 = no growth, -100 = all killed)
- particulars: 10 µM unless noted
This is part of a sample that, as a whole, favours compounds with a hit. Of some 83,000 tested, about 20% had one in any assay.
Returns YES if the recorded growth is greater than or equal to 50%, and NO otherwise.

Check out these entries, answers already filled in.
{"columns": ["molecule", "studyTarget", "discreteLabel"],
 "data": [
  ["NC(=O)CSc1nc(-c2ccc(F)cc2)cc(-c2ccco2)n1", "NCI-H23 lung", "YES"],
  ["Nc1nc(-c2cnccn2)nn1-c1nc2ccccc2s1", "NCI-H23 lung", "YES"],
  ["Nc1ccc(C2c3ccccc3Oc3ccccc32)cc1", "NCI-H23 lung", "YES"],
  ["O=C(CCc1nnc2sc(Cc3ccccc3Cl)nn12)c1nc2ncccc2[nH]1", "NCI-H23 lung", "YES"],
  ["Cc1nc(Nc2ccccn2)sc1C(=O)/C=C/c1ccc(Cl)cc1", "NCI-H23 lung", "NO"],
  ["O=CCCCC(O)C=O (configuration not stated)", "NCI-H23 lung", "YES"]
]}

Inquiry: Decide: is the reported value of growth for Cc1ccc(C(=O)c2oc3ccc4c(C)cc(=O)oc4c3c2C)cc1 equal to or greater than 50%?
Reply text: NO

Inquiry: Decide: is the reported value of growth for Fc1ccc(Oc2ccc(Nc3ncnc4onc(-c5ccccc5)c34)cc2)cc1 equal to or greater than 50%?
Reply text: YES

Inquiry: Decide: is the reported value of growth for COc1cc(CNC(=O)Cc2ccccc2)ccc1OCc1cn(-c2ccc(F)cc2)nn1 equal to or greater than 50%?
Reply text: YES

Inquiry: Decide: is the reported value of growth for COc1ccc(C2Nc3ncnc(N)c3N=C3c4ccccc4C(=O)C32)cc1 (configuration not stated) equal to or greater than 50%?
Reply text: YES

Inquiry: Decide: is the reported value of growth for COc1ccc(C2=NN(/C=C3\SC(=O)NC3=Nc3ccc(F)cc3)C(c3ccc(F)cc3)C2)cc1 (configuration not stated) equal to or greater than 50%?
Reply text: YES

###

- Tested on: K-562 leukemia
- assayInfo: NCI-60 one-dose screen, 48 h
- particulars: 10 µM unless noted
This is part of a sample that, as a whole, favours compounds with a hit. Of some 83,000 tested, about 20% had one in any assay. The source made the active and inactive calls. The calls were made as follows: active = growth percent below 10; inactive = the rest.
Return exactly one item of active, inactive

{"columns": ["molecule", "studyTarget", "discreteLabel"],
 "data": [
  ["COc1ccc(/C=C2\\NC(=O)NC2=O)cc1O", "K-562 leukemia", "inactive"]
]}

Inquiry: // param item: COc1ccc(C2C3=C(COC3=O)N(CCO)c3cc4c(cc32)OCCO4)cc1 (stereo unspecified) ; yields the recorded call
Reply text: inactive

###

- Tested on: LOX IMVI melanoma
- assayInfo: NCI-60 one-dose screen, 48 h
- particulars: 10 µM unless noted
The panel holds about 83,000 compounds, 20% with a hit somewhere; the sample as a whole holds those more often. The source made the active and inactive calls. How the source made its calls: active means growth percent below 10; inactive means the rest.
Return exactly one item of 1.0 for active, 0.0 for inactive

Check out these entries, answers already filled in.
{"columns": ["mol", "studyTarget", "discreteLabel"],
 "data": [
  ["CC1=C(C(=O)OCC2CCN(C(=O)OC(C)(C)C)CC2)[C@H](c2cccc(Br)c2)C2=C(CC(C)(C)CC2=O)N1", "LOX IMVI melanoma", 0.0],
  ["Nc1ccc(-n2c(=O)oc3ccc(Cl)cc3c2=O)c(Cl)c1", "LOX IMVI melanoma", 1.0],
  ["COc1ccc(Cn2cc(Cn3cc(C=C4C(=O)NC(=O)NC4=O)c4ccccc43)nn2)cc1", "LOX IMVI melanoma", 0.0],
  ["COC(=O)/C(CCC=C(C)C)=C1\\[C@@H](OC(C)=O)C[C@@]2(C)[C@H]1CC(=O)[C@H]1[C@@]3(C)CC[C@H](NCc4ccccc4)[C@@H](C)[C@@H]3CC[C@@]12C", "LOX IMVI melanoma", 0.0]
]}

# ---- query molecule ----
Inquiry: // param item: Nc1ccc(C2c3ccccc3Oc3ccccc32)cc1 ; yields the recorded call
Reply text: 0.0

###

- Test system: SK-MEL-28 melanoma
- assayInfo: NCI-60 one-dose screen, 48 h (100 = growth as untreated, 0 = no growth, -100 = all killed)
- particulars: 10 µM
About 83,000 compounds went through this panel and 20% of them were active in at least one assay; those are over-represented in the sample as a whole.
Decision: growth beneath 20% gives Fulfilled; growth meeting or exceeding 20% gives Not fulfilled.

{"columns": ["mol", "studyTarget", "discreteLabel"],
 "data": [
  ["Cc1sc2ncn(CC(=O)Nc3ccc(S(N)(=O)=O)cc3)c(=O)c2c1C", "SK-MEL-28 melanoma", "Not fulfilled"]
]}

Inquiry: API: query returns whether the compound falls strictly under 20% in growth. Query: NCCNc1nc2ccc(F)cc2c2c(=O)c3cc(F)ccc3sc12
Reply text: Not fulfilled

Inquiry: API: query returns whether the compound falls strictly under 20% in growth. Query: CCN(CCO)CCNc1ccc(C)c2sc3cc(Cl)ccc3c(=O)c12
Reply text: Fulfilled

Inquiry: API: query returns whether the compound falls strictly under 20% in growth. Query: O=C(Nc1ccc(Br)cc1F)c1cc(I)ccc1O
Reply text: Fulfilled

Inquiry: API: query returns whether the compound falls strictly under 20% in growth. Query: O=C(CN1C(=O)/C(=C\c2ccc(Cl)cc2)SC1=S)Nc1ncc(Cc2ccc(Cl)cc2)s1
Reply text: Not fulfilled

Inquiry: API: query returns whether the compound falls strictly under 20% in growth. Query: CNCCNc1nc2ccccc2c2c(=O)c3cccc(C)c3sc12
Reply text: Fulfilled
